experiment: qHTS for Inhibitors of TGF-b: Cytotox Counterscreen; settings: HepG2 CAGA-GFP viability, ATP luminescence, 18 h; series mostly up to 46.1 µM
The whole screen tested about 410,000 compounds, of which about 3,100 (0.76%) were called active. Calls follow the shape of the dose curve; as a rule, active = well fitted cell-killing curve with a large enough effect; inactive = no such curve, though single readings can be large or run the other way. This excerpt belongs to a sample that is enriched for actives.
Form entry, call: pick from 1 = active, -1 = inactive

# example entries with known answers
| compound | class-name |
| --- | --- |
| O=C(CSc1nc2nccnc2c(=O)n1CCc1c[nH]c2ccccc12)Nc1ccccc1F | -1 |
| Cc1ccccc1CNC(=O)C1CCCN(S(=O)(=O)N(C)c2ccc(F)cc2)C1 (centres undefined) | -1 |
| Cc1ccc(N(Cc2ccccc2O)C(=O)c2ccccc2F)cc1 | -1 |
| Cc1cc(OC(C)C(=O)Nc2sc3c(c2C(N)=O)CCCC3)ccc1Cl (centres undefined) | -1 |
| CCCS(=O)(=O)Nc1cccc(-c2cn3ccsc3n2)c1 | -1 |

Q: Which result was noted for this compound in the test: Cc1ccc(OS(=O)Nc2cccc3nccnc23)cc1 (centres undefined)
Ans: 1

Q: # outcome recorded in this test, key = COC(=O)Nc1ncc(CN2C(=O)c3ccccc3C2=O)s1
Ans: -1

Q: Please state the recorded outcome for this compound: O=[N+]([O-])c1c(NCCO)cc(Sc2nc3ccccc3s2)c2nonc12
Ans: 1

Q: Per the assay record, what outcome was assigned to Cc1ccc(Oc2ccc3c(c2)C(=O)N(c2cccc4cccnc24)C3=O)cc1 ?
Ans: -1

The reported measurements were obtained from PubChem BioAssay AID588856.
